tested on: NCI/ADR-RES ovarian; test: NCI-60 one-dose screen, 48 h; settings: 10 µM unless noted
This is part of a sample that, as a whole, favours compounds with a hit. Of some 83,000 tested, about 20% had one in any assay. The source made the active and inactive calls. The calls were made as follows: active = growth percent below 10; inactive = the rest.
Classes used: active, inactive

In [3]: df
Out[3]:
                                   compound  group_label
0  Cc1scc2c1N(C(=O)CN1CCN(C)CC1)c1ccccc1NC2=O     inactive
1  O=C(/C=C/c1cccnc1)NCCCCC1CCCN(C(=O)c2ccccc2)C1 (stereo not given)     inactive
2  COc1cccc(C2C(C#N)=C(N)Oc3cc(OC)ccc32)c1 (stereo not given)       active
3      O=C(Cc1ccccn1)C(F)(F)C(F)(F)C(F)(F)F     inactive
4  CN(CC(=O)N(Cc1ccc(C2CCCCC2)cc1)c1ccc(C(=O)O)cc1)S(=O)(=O)c1c(F)c(F)c(F)c(F)c1F     inactive
